# assay.procedure: Plasma pharmacokinetics after single oral doses (SAD cohorts)
# Assay type: in vivo, human
# condition.notes: human, plasma; single oral dose 40 mg; mean ± SD; n = 5; read-out: Vz/F

{"columns": ["smiles.str", "endpoint.unit", "Vd/F"],
 "data": [
  ["CCc1nc(-c2ccc3c(c2)CC[C@H]3NC(=O)c2cnn(C)c2)no1", "L", 382]
]}

====

# assay.procedure: Plasma pharmacokinetics after multiple oral doses (MAD cohorts)
# Assay type: in vivo, human
# condition.notes: human, plasma, oral, 5 mg, Day 1; 5 mg qd × 14 d; geometric mean (geometric CV%); n = 6; read-out: AUC24

{"columns": ["smiles.str", "AUC / ng·h/mL"],
 "data": [
  ["CCc1nc(-c2ccc3c(c2)CC[C@H]3NC(=O)c2cnn(C)c2)no1", 278]
]}

====

# assay.procedure: Plasma pharmacokinetics after single oral doses (SAD cohorts)
# Type: in vivo, human
# condition.notes: human, plasma; single oral dose 40 mg; geometric mean (geometric CV%); n = 6; read-out: AUC24

{"columns": ["smiles.str", "AUC (ng·h/mL)"],
 "data": [
  ["CCc1nc(-c2ccc3c(c2)CC[C@H]3NC(=O)c2cnn(C)c2)no1", 2530]
]}

====

# assay.procedure: Plasma pharmacokinetics after multiple oral doses (MAD cohorts)
# Format: in vivo, human
# condition.notes: human, plasma, oral, 5 mg, Day 1; 5 mg qd × 14 d; median (range); n = 6; read-out: Tmax
attribute.measured: Tmax

{"columns": ["smiles.str", "result"],
 "data": [
  ["CCc1nc(-c2ccc3c(c2)CC[C@H]3NC(=O)c2cnn(C)c2)no1", "1.3 h"]
]}

====

# assay.procedure: Plasma pharmacokinetics after single oral doses (SAD cohorts)
# Assay type: in vivo, human
# condition.notes: human, plasma; single oral doses 1 to 75 mg; read-out: Median time to reach peak concentrations, range across doses
attribute.measured: Tmax

{"columns": ["molecule", "result"],
 "data": [
  ["CCc1nc(-c2ccc3c(c2)CC[C@H]3NC(=O)c2cnn(C)c2)no1 [Aficamten]", "0.5 to 2.76 h"]
]}

====

# assay.procedure: Plasma pharmacokinetics after single oral doses (SAD cohorts)
# Type: in vivo, human
# condition.notes: human, plasma; single oral dose 10 mg; median (range); n = 6; read-out: Tmax

{"columns": ["smiles.str", "Tmax / h"],
 "data": [
  ["CCc1nc(-c2ccc3c(c2)CC[C@H]3NC(=O)c2cnn(C)c2)no1", 2.8]
]}

====

# assay.procedure: Plasma pharmacokinetics in the food-effect cohort
# Type: in vivo, human
# condition.notes: human, plasma, oral, 10 mg, Fasted, single 10 mg; geometric mean (geometric CV%); n = 4
attribute.measured: AUC(0-inf) (ng·h/mL)

{"columns": ["smiles.str", "result.number"],
 "data": [
  ["CCc1nc(-c2ccc3c(c2)CC[C@H]3NC(=O)c2cnn(C)c2)no1", 3670]
]}

====

# assay.procedure: Plasma pharmacokinetics after single oral doses (SAD cohorts)
# Format: in vivo, human
# condition.notes: human, plasma; single oral dose 50 mg; geometric mean (geometric CV%); n = 9

{"columns": ["compound", "AUC(0-inf)"],
 "data": [
  ["CCc1nc(-c2ccc3c(c2)CC[C@H]3NC(=O)c2cnn(C)c2)no1 [Aficamten]", "13700 ng·h/mL"]
]}

====

# assay.procedure: Plasma pharmacokinetics after single oral doses (SAD cohorts)
# Format: in vivo, human
# condition.notes: human, plasma; single oral dose 75 mg; n = 1

{"columns": ["smiles.str", "Cmax, ng/mL"],
 "data": [
  ["CCc1nc(-c2ccc3c(c2)CC[C@H]3NC(=O)c2cnn(C)c2)no1", 1220]
]}

====

# assay.procedure: Plasma pharmacokinetics after multiple oral doses (MAD cohorts)
# Format: in vivo, human
# condition.notes: human, plasma, oral, 5 mg, Day 14; 5 mg qd × 14 d; median (range); n = 6; read-out: Tmax,ss

{"columns": ["compound", "Tmax"],
 "data": [
  ["CCc1nc(-c2ccc3c(c2)CC[C@H]3NC(=O)c2cnn(C)c2)no1 [Aficamten]", "2.8 h"]
]}

====

# assay.procedure: Plasma pharmacokinetics after single oral doses (SAD cohorts)
# Type: in vivo, human
# condition.notes: human, plasma; single oral dose 1 mg; geometric mean (geometric CV%); n = 6

{"columns": ["compound", "Cmax [ng/mL]"],
 "data": [
  ["CCc1nc(-c2ccc3c(c2)CC[C@H]3NC(=O)c2cnn(C)c2)no1 [Aficamten]", 5.8]
]}

====

# assay.procedure: Plasma pharmacokinetics in the food-effect cohort
# Assay type: in vivo, human
# condition.notes: human, plasma, oral, 10 mg, Fed, single 10 mg; geometric mean (geometric CV%); n = 7

{"columns": ["compound", "endpoint.unit", "AUC(0-inf)"],
 "data": [
  ["CCc1nc(-c2ccc3c(c2)CC[C@H]3NC(=O)c2cnn(C)c2)no1 [Aficamten]", "ng·h/mL", 3410]
]}

====

# assay.procedure: Plasma pharmacokinetics after single oral doses (SAD cohorts)
# Assay type: in vivo, human
# condition.notes: human, plasma, po, 3 mg, single oral dose 3 mg; mean ± SD; n = 5; read-out: t1/2 (converted)

{"columns": ["smiles.str", "half-life"],
 "data": [
  ["CCc1nc(-c2ccc3c(c2)CC[C@H]3NC(=O)c2cnn(C)c2)no1", "75.1 h"]
]}

====

# assay.procedure: Plasma pharmacokinetics in the CYP2D6 poor metabolizer cohort
# Assay type: in vivo, human
# condition.notes: human, plasma, oral; CYP2D6 poor metabolizers, single 10 mg; geometric mean (geometric CV%); n = 7
attribute.measured: Cmax

{"columns": ["smiles.str", "result"],
 "data": [
  ["CCc1nc(-c2ccc3c(c2)CC[C@H]3NC(=O)c2cnn(C)c2)no1", "57.3 ng/mL"]
]}

====

# assay.procedure: Plasma pharmacokinetics after multiple oral doses (MAD cohorts)
# Type: in vivo, human
# condition.notes: human, plasma, oral, 7.5 mg, Day 1; 7.5 mg qd × 17 d; median (range); n = 6; read-out: Tmax

{"columns": ["molecule", "endpoint.unit", "Tmax"],
 "data": [
  ["CCc1nc(-c2ccc3c(c2)CC[C@H]3NC(=O)c2cnn(C)c2)no1 [Aficamten]", "min", 48]
]}

====

# assay.procedure: Plasma pharmacokinetics after single oral doses (SAD cohorts)
# Format: in vivo, human
# condition.notes: human, plasma; single oral dose 10 mg (extensive metabolizers); geometric mean (geometric CV%); n = 6; read-out: AUC24

{"columns": ["smiles.str", "endpoint.unit", "AUC"],
 "data": [
  ["CCc1nc(-c2ccc3c(c2)CC[C@H]3NC(=O)c2cnn(C)c2)no1", "ng·h/mL", 679]
]}

====

# assay.procedure: Plasma pharmacokinetics after single oral doses (SAD cohorts)
# Format: in vivo, human
# condition.notes: human, plasma; single oral dose 3 mg; geometric mean (geometric CV%); n = 6

{"columns": ["smiles.str", "Cmax"],
 "data": [
  ["CCc1nc(-c2ccc3c(c2)CC[C@H]3NC(=O)c2cnn(C)c2)no1", "0.0261 µg/mL"]
]}

====

# assay.procedure: Plasma pharmacokinetics after single oral doses (SAD cohorts)
# Type: in vivo, human
# condition.notes: human, plasma; single oral dose 25 mg; mean ± SD; n = 6; read-out: Vz/F
# Description: The SAD portion of the study used a randomized, double-blind, placebo-controlled, sequential, escalating dose design, in which participants received single ascending oral doses of the study drug. Seven cohorts were dosed in sequence (Figure 1). For all study groups, blood samples for PK assessment were obtained predose, up to 12 times daily on day 1, and then at regular intervals throughout the study (see Supplemental Appendix for details). […]
attribute.measured: Vd/F (L)

{"columns": ["compound", "attribute.measured", "endpoint.unit", "result.number"],
 "data": [
  ["CCc1nc(-c2ccc3c(c2)CC[C@H]3NC(=O)c2cnn(C)c2)no1 [Aficamten]", "Vd/F", "L", 405]
]}

====

# assay.procedure: Plasma pharmacokinetics after multiple oral doses (MAD cohorts)
# Format: in vivo, human
# condition.notes: human, plasma, oral, 10 mg, Day 14; 10 mg qd × 14 d; median (range); n = 6; read-out: Tmax,ss
attribute.measured: Tmax (h)

{"columns": ["smiles.str", "result.number"],
 "data": [
  ["CCc1nc(-c2ccc3c(c2)CC[C@H]3NC(=O)c2cnn(C)c2)no1", 2.5]
]}

====

# assay.procedure: Plasma pharmacokinetics after single oral doses (SAD cohorts)
# Format: in vivo, human
# condition.notes: human, plasma; single oral dose 3 mg; median (range); n = 6; read-out: Tmax

{"columns": ["smiles.str", "endpoint.unit", "Tmax"],
 "data": [
  ["CCc1nc(-c2ccc3c(c2)CC[C@H]3NC(=O)c2cnn(C)c2)no1", "h", 1.3]
]}

====

# assay.procedure: Plasma pharmacokinetics after single oral doses (SAD cohorts)
# Format: in vivo, human
# condition.notes: human, plasma, po, 25 mg, single oral dose 25 mg; mean ± SD; n = 6; read-out: t1/2 (converted)

{"columns": ["smiles.str", "endpoint.unit", "half-life"],
 "data": [
  ["CCc1nc(-c2ccc3c(c2)CC[C@H]3NC(=O)c2cnn(C)c2)no1", "h", 79.8]
]}
